System: seven IASA-YIPSAEK(ABA)I-specific CTL clones
assayProcedure: 51Cr release cytolytic assay, P815 targets, seven CTL clones
Format: cell-based, mice
experimentalParameters: clones S1, S4, S14, S15, S17, S18, T1; 51Cr-labeled P815 targets; wt = 1 (Fig. 3 A)
Primed or numbered codes have the meaning given here. No end group written: not given here. *: point of attachment. IASA″ = iodo-4-azidosalicylic acid, on the N-terminus in place of PbCS S-252; Benzoyl(4-N3) = [N-]=[N+]=Nc1ccc(C(=O)*)cc1; IASA = iodo-4-azidosalicylic acid
Each record here notes measured normalized relative antigenic activities over seven CTL clones.

> print(dat)
                                  substance  recordedresult
1    I254A ({IASA}-YAPSAEK(Benzoyl(4-N3))I)        0.1 to 6
2  P255A ({IASA}-YIASAEK(Benzoyl(4-N3))I; not fully specified)        0.1 to 6

Please examine the following record next.
*Q* Using the record for S256A ({IASA″}-YIPAAEK(Benzoyl(4-N3))I) , report its normalized relative antigenic activities over seven CTL clones.
*A* 0.1 to 6
